All figures here come from the supplement of paper PMC12783771.

B1: library; a variant is named by its letters at X, in order (parent)
chain: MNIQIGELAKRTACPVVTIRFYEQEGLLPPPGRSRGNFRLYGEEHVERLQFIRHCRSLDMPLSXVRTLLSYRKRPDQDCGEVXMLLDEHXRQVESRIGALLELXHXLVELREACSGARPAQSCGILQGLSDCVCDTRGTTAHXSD

variants of: B1; assay: sfGFP reporter fluorescence (15 h) (µM FITC); higher = stronger transcriptional activation; settings: library round: Round 3b; ligand: 30 µM Zn
attribute.measured: sfGFP reporter fluorescence
Answer using only a numeral; do not append any unit.

Form field sfGFP reporter fluorescence, entry `DIATAR` : 0.0423

get_value(item= `DIIVET` , readout=sfGFP reporter fluorescence) returns 0.0469

// sample `KIITER` , its sfGFP reporter fluorescence was 0.0497

Lookup result for `KIAKET` ; measured sfGFP reporter fluorescence: 0.057

sfGFP reporter fluorescence measured on `DIATER` = 0.0413

For `KFATET` the variant record lists sfGFP reporter fluorescence as 0.0606

Form: variant = `KNATAR` ; sfGFP reporter fluorescence = 0.406

For `KIATAR` the variant record lists sfGFP reporter fluorescence as 0.0681

The variant `KFIKET` showed sfGFP reporter fluorescence equal to 0.0531

The variant listed as `KFAVAR` has a reported sfGFP reporter fluorescence of 0.0563

Per the record, `DIITER` has sfGFP reporter fluorescence of 0.0446

Record `DIIVER` , field sfGFP reporter fluorescence: 0.047

Reported sfGFP reporter fluorescence ( `DFITAT` ) = 0.0439

The variant listed as `KFAVHT` has a reported sfGFP reporter fluorescence of 0.179

Looking up `KFAVHP` , I found its sfGFP reporter fluorescence recorded as 0.198

So, `DFIVET` ? Its sfGFP reporter fluorescence was 0.0449

Lab note: measured sfGFP reporter fluorescence of `KNAKAR` was 0.754

Record `KFITAR` . Reported sfGFP reporter fluorescence: 0.0776

Record summary for `KFITHR` : reported sfGFP reporter fluorescence = 0.25

The recorded sfGFP reporter fluorescence for entry `KFITER` equals 0.0763

For reference, reported sfGFP reporter fluorescence for `KFAKAT` stands at 0.0878

sfGFP reporter fluorescence reading for `KNITER` : 0.926

Reported sfGFP reporter fluorescence for `KNATAT` was 0.514
